Cited source for all entries: ChEMBL document CHEMBL4765416

Biological target: CYP3A4 (Homo sapiens, UniProt P08684)
Sequence (P08684 whole entry): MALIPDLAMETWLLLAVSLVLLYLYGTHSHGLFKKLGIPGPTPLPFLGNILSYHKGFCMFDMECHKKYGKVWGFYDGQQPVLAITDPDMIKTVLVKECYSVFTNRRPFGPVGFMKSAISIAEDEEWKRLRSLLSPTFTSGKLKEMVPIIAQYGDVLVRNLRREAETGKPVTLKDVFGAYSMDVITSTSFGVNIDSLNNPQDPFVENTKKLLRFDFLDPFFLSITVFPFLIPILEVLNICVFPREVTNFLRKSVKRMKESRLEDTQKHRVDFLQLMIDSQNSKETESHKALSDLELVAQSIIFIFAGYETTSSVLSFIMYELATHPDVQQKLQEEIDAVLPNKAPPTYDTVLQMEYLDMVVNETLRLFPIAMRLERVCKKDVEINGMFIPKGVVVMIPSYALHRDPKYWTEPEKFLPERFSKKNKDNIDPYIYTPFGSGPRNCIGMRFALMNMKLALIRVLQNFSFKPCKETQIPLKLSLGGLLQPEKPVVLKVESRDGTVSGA
Assay: Inhibition of CYP3A4 in human liver microsomes at 10 uM using testosterone as substrate preincubated for 10 mins followed by NADPH addition measured after 10 mins by LC-MS/MS analysis relative to control
Assay type: ADME
Conditions: probe testosterone, time 20 min
Measurement type: inhibition at 10 min, 10 µM (%)
Just the number in %, nothing appended.

Answer with the recorded inhibition at 10 min, 10 µM for the molecule listed here: Cc1nc(CN2CCC[C@H]2c2ncccc2C)cc(N2CCN(C)CC2)n1
-4

* * *

Target: C-X-C chemokine receptor type 4 (Homo sapiens, UniProt P61073)
Sequence (P61073 whole entry): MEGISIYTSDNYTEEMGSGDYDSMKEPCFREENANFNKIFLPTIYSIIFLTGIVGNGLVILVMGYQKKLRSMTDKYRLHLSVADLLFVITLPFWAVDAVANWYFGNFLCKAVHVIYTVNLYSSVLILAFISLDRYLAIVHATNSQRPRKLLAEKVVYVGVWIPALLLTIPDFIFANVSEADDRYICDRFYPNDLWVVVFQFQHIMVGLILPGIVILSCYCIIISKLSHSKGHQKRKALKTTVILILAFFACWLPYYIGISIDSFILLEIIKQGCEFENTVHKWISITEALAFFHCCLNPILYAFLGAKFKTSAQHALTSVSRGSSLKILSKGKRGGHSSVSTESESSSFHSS
Assay: Antagonist activity at CXCR4 in human CD4-positive T cells assessed as inhibition of CXCL12-induced cytosolic calcium flux preincubated for 20 mins followed by CXCL12 addition by calcium 4 dye based FLIPR TETRA analysis
Format: functional, cell-based, T cell
pIC50: −log10 of the molar value.
Cut-off 9 on pIC50, inclusive. At or above means yes; below means no.

Previously resolved entries follow.
- Structure smiles string: "Cc1nc(CN2CCC[C@H]2c2ncccc2C)cc(N2CCCN(C)CC2)n1"
  Test target: "C-X-C chemokine receptor type 4 (Homo sapiens, UniProt P61073)"
  Answer label: "yes"
- Structure smiles string: "Cc1nc(CN2CCC[C@H]2c2ccccn2)cc(N2CCN(C)CC2)n1"
  Test target: "C-X-C chemokine receptor type 4 (Homo sapiens, UniProt P61073)"
  Answer label: "no"
- Structure smiles string: "Cc1nc(CN2CCC[C@H]2c2ncccc2C)cc(N2CCC(N(C)C)CC2)n1"
  Test target: "C-X-C chemokine receptor type 4 (Homo sapiens, UniProt P61073)"
  Answer label: "no"
- Structure smiles string: "Cc1nc(CN2CCC[C@H]2c2ncccc2C)cc(N2CCN(C)CC2)n1"
  Test target: "C-X-C chemokine receptor type 4 (Homo sapiens, UniProt P61073)"
  Answer label: "yes"

API: the following record is the query input.
Check the entry Cc1ccc([C@@H]2CCCN2Cc2cc(N3CCN(C)CC3)nc(C)n2)nc1 : does pIC50 equal or exceed 9?
no

* * *

Test: 1-Octanol/water partition coefficient, log P of compound at pH 7.4 measured after 24 hrs by shake flask method
Type: physicochemical
Measurement type: logD at 24 h
Format: numeric value only, no unit, no commentary.

Indicate the recorded logD at 24 h value for this compound: Cc1nc(CN2CCC[C@H]2c2ncccc2C)cc(N2CCN(C)CC2)n1
1.12

* * *

Assay: Protein binding in human plasma at 1 uM
Type: ADME, cell-free
Details: read-out: PPB (converted)
Measurement type: fraction unbound at 1 µM
Give the value as a plain number.

Give the value of fraction unbound at 1 µM reported for the following: Cc1nc(CN2CCC[C@H]2c2ncccc2C)cc(N2CCN(C)CC2)n1
0.05

* * *

Assay: Protein binding in mouse plasma at 1 uM
Format: ADME, cell-free
Details: read-out: PPB (converted)
Measurement type: fraction unbound at 1 µM
// print number alone

Give the reported value of fraction unbound at 1 µM for this record: Cc1nc(CN2CCC[C@H]2c2ncccc2C)cc(N2CCN(C)CC2)n1
0.67

* * *

Biological target: CYP2C9 (Homo sapiens, UniProt P11712)
Sequence (P11712 whole entry): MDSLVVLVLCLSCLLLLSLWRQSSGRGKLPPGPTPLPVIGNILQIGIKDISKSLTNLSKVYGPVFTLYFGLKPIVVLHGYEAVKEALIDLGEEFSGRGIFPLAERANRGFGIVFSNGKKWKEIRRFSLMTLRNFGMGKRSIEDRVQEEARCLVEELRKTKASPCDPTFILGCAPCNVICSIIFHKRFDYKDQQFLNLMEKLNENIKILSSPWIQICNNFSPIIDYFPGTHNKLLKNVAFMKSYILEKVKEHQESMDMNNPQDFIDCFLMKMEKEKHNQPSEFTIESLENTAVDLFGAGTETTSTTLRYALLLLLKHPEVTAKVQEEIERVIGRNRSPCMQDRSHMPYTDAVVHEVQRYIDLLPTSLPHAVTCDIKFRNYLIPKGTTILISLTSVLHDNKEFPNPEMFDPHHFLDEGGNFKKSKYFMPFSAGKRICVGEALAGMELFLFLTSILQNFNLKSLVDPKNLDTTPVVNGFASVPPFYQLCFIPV
Assay: Inhibition of CYP2C9 in human liver microsomes at 10 uM using tolbutamide as substrate preincubated for 10 mins followed by NADPH addition measured after 10 mins by LC-MS/MS analysis relative to control
Assay type: ADME
Details: probe tolbutamide
Measurement type: inhibition at 10 min, 10 µM
I'd appreciate it if you included the unit after the number.

Give inhibition at 10 min, 10 µM for the following molecule: Cc1nc(CN2CCC[C@H]2c2ncccc2C)cc(N2CCN(C)CC2)n1
1%

* * *

Each record here notes measured CLint scaled at 1 µM.
Test: Intrinsic clearance in rat liver microsomes at 1 uM peincubated for 10 mins followed by NADPH addition and measured 60 mins by LC-MS/MS analysis
Format: ADME, Microsome
Settings: time 70 min, read-out: CLH
Please reply with the bare figure in mL/min/kg and do not write the unit itself.

- Compound: "CN1CCN(c2cc(CN(C)C3CCCc4cccnc43)nc(C3CC3)n2)CC1 (stereo not given)"
  Measurement type: "CLint scaled at 1 µM"
  Unit symbol: "mL/min/kg"
  Obs value: 2440

Hello, please tell me recorded CLint scaled at 1 µM for this one: CN1CCN(c2cccc3nc(CN(C)[C@H]4CCCc5cccnc54)c(CO)n23)CC1
651

Tell us which CLint scaled at 1 µM value is on record for Cc1nc(CN(C)C2CCCc3cccnc32)c(F)c(N2CCN(C)CC2)n1 (stereo not given)
1080

Determine from records and report CLint scaled at 1 µM for CCc1nc(CN(C)C2CCCc3cccnc32)cc(N2CCN(C)CC2)n1 (stereo not given)
2090

Identify measured CLint scaled at 1 µM corresponding to CCN1CCN(c2cc(CN(C)[C@H]3CCCc4cccnc43)nc(C)n2)CC1
2180

Fill in CLint scaled at 1 µM for record CCN(Cc1cc(N2CCN(C)CC2)nc(C)n1)C1CCCc2cccnc21 (stereo not given)
1280

Determine its reported CLint scaled at 1 µM: CN1CCN(c2cc(CN(C)C3CCCc4cccnc43)nc(N)n2)CC1 (stereo not given)
767

Return the recorded CLint scaled at 1 µM value; entry: Cc1nc(CN(C)[C@H]2CCCc3cccnc32)cc(N2CCN(C)[C@@H](C)C2)n1
1550

Query CLint scaled at 1 µM for Cc1nc(CN(C)C2CCCc3cccnc32)c(C#N)c(N2CCN(C)CC2)n1 (stereo not given)
1640

Dear colleague, please send me the reported CLint scaled at 1 µM for Cc1nc(CN2CCC[C@H]2c2ncccc2C)cc(N2CCN(C)CC2)n1 when you can.
123

Provide only the value of recorded CLint scaled at 1 µM for Cc1nc(CN(C)[C@H]2CCCc3cccnc32)cc(N2CCN(C)CC2)n1
1570

Name the recorded CLint scaled at 1 µM of the item COc1nc(CN(C)C2CCCc3cccnc32)cc(N2CCN(C)CC2)n1 (stereo not given) in your answer.
1130

* * *

Each item that follows carries a reported IC50.
Molecular target: C-X-C chemokine receptor type 4 (Homo sapiens, UniProt P61073)
Assay: Inhibition of APC-conjugated anti-human CXCR4 clone 12G5 binding to CXCR4 in human HPBALL cells measured after 3 hrs by FACS analysis
Assay type: cell-based
Report as a plain number; the unit nM is understood.

- Compound: "Cc1nc(CN2CCCCC2c2ccccn2)cc(N2CCN(C)CC2)n1 (stereo not drawn)"
  IC50, nM: 620
- Compound: "Cc1nc(CN2CCC[C@H]2c2ncccc2C)cc(N2CCN(C)CC2)n1"
  IC50, nM: 79
- Compound: "Cc1nc(CN2CCC[C@H]2c2ccccn2)cc(N2CCN(C)CC2)n1"
  IC50, nM: 220
- Compound: "Cc1cccc([C@@H]2CCCN2Cc2cc(N3CCN(C)CC3)nc(C)n2)n1"
  IC50, nM: 2390
- Compound: "Cc1nc(CN2CCCC2c2ccccn2)cc(N2CCN(C)CC2)n1 (stereo not drawn)"
  IC50, nM: 319
- Compound: "Cc1nc(CN2CCC(C)C2c2ccccn2)cc(N2CCN(C)CC2)n1 (stereo not drawn)"
  IC50, nM: 1550

Return the recorded IC50 value; entry: Cc1ccnc([C@@H]2CCCN2Cc2cc(N3CCN(C)CC3)nc(C)n2)c1
216

* * *

Assay: Protein binding in rat plasma at 1 uM
Assay type: ADME, cell-free
Settings: read-out: PPB (converted)
Measurement type: fraction unbound at 1 µM
Respond using a number only.

For the compound Cc1nc(CN2CCC[C@H]2c2ncccc2C)cc(N2CCN(C)CC2)n1 , give its measured fraction unbound at 1 µM value.
0.56

* * *

Test: Half life in rat liver microsomes at 1 uM peincubated for 10 mins followed by NADPH addition and measured 60 mins by LC-MS/MS analysis
Assay type: ADME, Microsome
Conditions: time 70 min
Measurement type: half-life at 1 µM (min)
Supply the numeric figure in min, leaving out any unit text.

The cases that follow already have their half-life at 1 µM on record.
- Compound: "CCc1nc(CN(C)C2CCCc3cccnc32)cc(N2CCN(C)CC2)n1 (stereo not given)"
  Measurement type: "half-life at 1 µM"
  Obs value: 1.19
- Compound: "CCN(Cc1cc(N2CCN(C)CC2)nc(C)n1)C1CCCc2cccnc21 (stereo not given)"
  Measurement type: "half-life at 1 µM"
  Obs value: 1.95
- Compound: "CN1CCN(c2cccc3nc(CN(C)[C@H]4CCCc5cccnc54)c(CO)n23)CC1"
  Measurement type: "half-life at 1 µM"
  Obs value: 3.82

Turning now to a further record.
Give reported half-life at 1 µM value for Cc1nc(CN(C)C2CCCc3cccnc32)c(F)c(N2CCN(C)CC2)n1 (stereo not given)
2.31

* * *

Item-by-item account of CLint scaled at 1 µM
Assay: Intrinsic clearance in rat liver microsomes at 1 uM peincubated for 10 mins followed by NADPH addition and measured 60 mins by LC-MS/MS analysis
Format: ADME, Microsome
Conditions: time 70 min, read-out: CLH

Before answering, review these 2 worked examples.
- Structure smiles string: "Cc1nc(CN(C)[C@H]2CCCc3cccnc32)cc(N2CCN3CCC[C@H]3C2)n1"
  Obs value: "> 497 mL/min/kg"
- Structure smiles string: "Cc1nc(CN(C)[C@H]2CCCc3cccnc32)cc(N2CCN(C)[C@H](C)C2)n1"
  Obs value: "> 497 mL/min/kg"

Give recorded CLint scaled at 1 µM. Cc1nc(CN(C)[C@H]2CCCc3cccnc32)cc(N2C[C@@H](C)N(C)[C@@H](C)C2)n1
> 497 mL/min/kg
